test: in vivo; details: mouse, tumour, iv, 40 pmol, Uptake, tumour, 0.5 h after injection; 40 pmol i.v.; non-blocked
Where a SMILES comes first, the peptide text is derived from it. [ ]: non-standard residue; d: D form. Tyr(3-I) = N[C@@H](Cc1ccc(O)c(I)c1)C(=O)O; Sta = CC(C)C[C@H](N)[C@@H](O)CC(=O)O; AEEA = NCCOCCOCC(=O)O
Measured tissue uptake at 0.5 h of individual entries
Number first, unit second: that is the form wanted.

Value of tissue uptake at 0.5 h reported for the molecule CC(C)C[C@H](NC(=O)C[C@H](O)[C@H](CC(C)C)NC(=O)[C@H](Cc1c[nH]cn1)NC(=O)CNC(=O)[C@@H](NC(=O)[C@H](C)NC(=O)[C@H](Cc1c[nH]c2ccccc12)NC(=O)[C@H](CCC(N)=O)NC(=O)[C@@H](Cc1ccccc1)NC(=O)COCCOCCNC(=O)CN1CCN(CC(=O)O)CCN(CC(=O)O)CCN(CC(=O)O)CC1)C(C)C)C(N)=O [[^111In]In-DOTA-PEG2-RM26, metal not drawn, reference compound] is 13 %ID/g

Further cases:
Value of tissue uptake at 0.5 h reported for the molecule CC(C)C[C@H](NC(=O)C[C@H](O)[C@H](CC(C)C)NC(=O)[C@H](Cc1c[nH]cn1)NC(=O)CNC(=O)[C@@H](NC(=O)[C@H](C)NC(=O)[C@H](Cc1c[nH]c2ccccc12)NC(=O)[C@H](CCC(N)=O)NC(=O)[C@@H](Cc1ccccc1)NC(=O)COCCOCCNC(=O)[C@@H](N)Cc1ccc(O)c(I)c1)C(C)C)C(N)=O [[^125I]I-Tyr-PEG2-RM26] (H-[Tyr(3-I)][AEEA][dF]QWAVGH[Sta]L-NH2) is 7 %ID/g

---

Experiment: in vivo
Conditions: mouse, salivary gland, iv, 40 pmol, Uptake, salivary gland, 3 h after injection; 40 pmol i.v.
Experimental: Animal studies were planned and performed in agreement with EU Directive 2010/63/EU for animal experiments and Swedish national legislation concerning protection of laboratory animals. […] Mice were euthanized followed by dislocation of their neck at 0.5 h after injection and blood samples were collected by heart puncture. […] The organ radioactivity was measured in a gamma-counter and uptake values of organs were calculated as percentage of injected dose per gram tissue (% ID/g). […]
Where a SMILES comes first, the peptide text is derived from it. [ ]: non-standard residue; d: D form. Tyr(3-I) = N[C@@H](Cc1ccc(O)c(I)c1)C(=O)O; Sta = CC(C)C[C@H](N)[C@@H](O)CC(=O)O; AEEA = NCCOCCOCC(=O)O
Measured tissue uptake at 3 h of individual entries
Give the quantity in %ID/g, number only.

Value of tissue uptake at 3 h reported for the compound CC(C)C[C@H](NC(=O)C[C@H](O)[C@H](CC(C)C)NC(=O)[C@H](Cc1c[nH]cn1)NC(=O)CNC(=O)[C@@H](NC(=O)[C@H](C)NC(=O)[C@H](Cc1c[nH]c2ccccc12)NC(=O)[C@H](CCC(N)=O)NC(=O)[C@@H](Cc1ccccc1)NC(=O)COCCOCCNC(=O)CN1CCN(CC(=O)O)CCN(CC(=O)O)CCN(CC(=O)O)CC1)C(C)C)C(N)=O [[^111In]In-DOTA-PEG2-RM26, metal not drawn, reference compound] is 0.07

Okay, next one:
Value of tissue uptake at 3 h reported for the compound CC(C)C[C@H](NC(=O)C[C@H](O)[C@H](CC(C)C)NC(=O)[C@H](Cc1c[nH]cn1)NC(=O)CNC(=O)[C@@H](NC(=O)[C@H](C)NC(=O)[C@H](Cc1c[nH]c2ccccc12)NC(=O)[C@H](CCC(N)=O)NC(=O)[C@@H](Cc1ccccc1)NC(=O)COCCOCCNC(=O)[C@@H](N)Cc1ccc(O)c(I)c1)C(C)C)C(N)=O [[^125I]I-Tyr-PEG2-RM26] (H-[Tyr(3-I)][AEEA][dF]QWAVGH[Sta]L-NH2) is 2
